- procedureText: Dog PK study of C1 (S) enantiomer, single oral dose, plasma and whole blood by chiral LC-MS/MS
- Format: in vivo, beagle dogs
- experimentalConditions: dog; plasma; Beagle; oral gavage 10 mg/kg; read-out: Cmax

{"molecule": "O=C(CC(F)(F)F)N1CC2(C1)OCc1cc(C3=NS[C@@](c4cc(Cl)c(F)c(Cl)c4)(C(F)(F)F)C3)ccc12 [C1 (S) enantiomer]", "Cmax [ng/mL]": 2260}

====

- procedureText: Plasma PK from oral tick and flea efficacy studies of the C1 racemate
- Type: in vivo, Mongrel dogs
- experimentalConditions: mongrel, dog, plasma, po, 20 mg/kg, plasma; Mongrel; Flea Efficacy study, oral 20 mg/kg; read-out: t1/2 (converted)
- Text: However, the S- enantiomer plasma PK curves and calculated PK parameters conducted in beagle dogs differed from oral efficacy studies conducted on the racemate dosed in mongrels. Pharmacokinetic results from the compound C1 (S) enantiomer PK study differed from racemic efficacy studies. Average plasma pharmacokinetic parameters from the compound C1 (S) enantiomer PK study described in this document are compared to those from oral efficacy studies of the racemate in Table 6.

{"molecule": "O=C(CC(F)(F)F)N1CC2(C1)OCc1cc(C3=NSC(c4cc(Cl)c(F)c(Cl)c4)(C(F)(F)F)C3)ccc12 (racemic) [C1 racemate]", "quantityUnit": "days", "half-life": 14.9}
